# experimentSummary: Solubility assay in JP 1st and 2nd fluid
# Format: physicochemical
# measurementParameters: JP 2nd fluid pH 6.8, 37 °C, read-out: Solubility JP2 (pH 6.8)
parameter: solubility at 4 h (µM)
Numbers only, in µM.

get_value(item= CCCCN(CCCC)c1ccc(C=Cc2sc3ccccc3[n+]2CC(=O)O)cc1.[Br-] , readout=solubility at 4 h) returns 0.2

====

# experimentSummary: Eye ball concentration after intravitreous injection
# Format: in vivo, rat
# measurementParameters: Wistar, rat, eye ball, other: intravitreous injection, intravitreous 16 µM (3 µL), 2 h; read-out: Mean Eye Ball Concentration
parameter: concentration at 2 h (nM)
One number for each entry, in nM.

# concentration at 2 h (compound: CCCCN(CCCC)c1ccc(C=Cc2sc3ccccc3[n+]2CC(=O)O)cc1.[Br-] [NK-5962] ) is 1.49

====

# experimentSummary: In vivo pharmacokinetics, oral administration
# Design: species or system rat
# measurementParameters: male, Wistar, rat, eye ball, po, 10 mg/kg, oral 10 mg/kg, 8 h, single rat; read-out: Eye Ball Concentration
parameter: concentration at 8 h

Entry under test: CCCCN(CCCC)c1ccc(C=Cc2sc3ccccc3[n+]2CC(=O)O)cc1.[Br-] . Its concentration at 8 h was < 0.1 nM

====

# experimentSummary: Eye ball concentration after topical application as eye drops
# Assay type: in vivo
# measurementParameters: Wistar, rat, topical eye drop 16 µM (10 µL)
parameter: concentration at 0.5 h (nM)
Answers are plain numbers, in nM.

Kindly note the recorded concentration at 0.5 h for CCCCN(CCCC)c1ccc(C=Cc2sc3ccccc3[n+]2CC(=O)O)cc1.[Br-] , which is 0.14

====

# experimentSummary: In vivo pharmacokinetics, intravenous administration
# Design: species or system rat
# measurementParameters: male, Sprague Dawley, rat, eye ball / plasma, iv, 1 mg/kg, intravenous 1 mg/kg, 0.5 h, single rat; read-out: Eye Ball/ Plasma Ratio
parameter: Kp at 0.5 h
Give bare numbers.

Summary for this molecule, CCCCN(CCCC)c1ccc(C=Cc2sc3ccccc3[n+]2CC(=O)O)cc1.[Br-] [NK-5962] : Kp at 0.5 h is 0.052

====

# experimentSummary: In vivo pharmacokinetics, oral administration
# Parameters: species or system rat
# measurementParameters: male, Wistar, rat, plasma, po, 100 mg/kg, oral 100 mg/kg, 1 h, single rat
parameter: concentration at 1 h (nM)
One number for each entry, in nM.

Short answer for CCCCN(CCCC)c1ccc(C=Cc2sc3ccccc3[n+]2CC(=O)O)cc1.[Br-] [NK-5962] : concentration at 1 h was 17

====

# experimentSummary: Eye ball concentration after intravitreous injection
# Format: in vivo, rat
# measurementParameters: Wistar, rat, eye ball, other: intravitreous injection, intravitreous 16 µM (3 µL), 0.083 h (5 min); read-out: Mean Eye Ball Concentration
parameter: concentration at 0.083 h (nM)
Answers are plain numbers, in nM.

Lookup result for CCCCN(CCCC)c1ccc(C=Cc2sc3ccccc3[n+]2CC(=O)O)cc1.[Br-] ; measured concentration at 0.083 h: 7.25

====

# experimentSummary: In vivo pharmacokinetics, oral administration
# Design: species or system rat
# measurementParameters: male, Wistar, rat, plasma, po, 10 mg/kg, oral 10 mg/kg, 4 h, single rat
# Procedure: Male Sprague Dawley (SD) and Wistar rats (5-week old) were obtained from Charles River Laboratories Japan (Yokohama, Japan) and Japan SLC, Inc. (Hamamatsu, Japan), respectively. […] Plasma was prepared by centrifugation of the blood samples. […] The supernatants were analyzed by liquid chromatography and tandem mass spectrometry (LC-MS/MS). […] The absolute bioavailability (BA) of the oral dose was calculated as AUC∞ (p.o.)/AUC∞ (i.v.). […]
parameter: concentration at 4 h (nM)
Give bare numbers, in nM.

Documented concentration at 4 h of CCCCN(CCCC)c1ccc(C=Cc2sc3ccccc3[n+]2CC(=O)O)cc1.[Br-] [NK-5962] : 0.8

====

# experimentSummary: In vivo pharmacokinetics, intravenous administration
# Set-up: species or system rat
# measurementParameters: male, Sprague Dawley, rat, eye ball, iv, 1 mg/kg, intravenous 1 mg/kg, 0.5 h, single rat; read-out: Eye Ball Concentration
parameter: concentration at 0.5 h (nM)
Numbers only, in nM.

concentration at 0.5 h reading for CCCCN(CCCC)c1ccc(C=Cc2sc3ccccc3[n+]2CC(=O)O)cc1.[Br-] : 34.1

====

# experimentSummary: In vivo pharmacokinetics, intravenous administration
# Parameters: species or system rat
# measurementParameters: male, Sprague Dawley, rat, plasma, iv, 1 mg/kg, intravenous 1 mg/kg, 1 h, single rat
parameter: concentration at 1 h

Noted for CCCCN(CCCC)c1ccc(C=Cc2sc3ccccc3[n+]2CC(=O)O)cc1.[Br-] [NK-5962] : its concentration at 1 h reads 49.9 nM

====

# experimentSummary: In vivo pharmacokinetics, intravenous administration
# Set-up: species or system rat
# measurementParameters: male, Sprague Dawley, rat, plasma, iv, 1 mg/kg, intravenous 1 mg/kg, 0.25 h, single rat
parameter: concentration at 0.25 h (nM)
Give bare numbers, in nM.

Record summary for CCCCN(CCCC)c1ccc(C=Cc2sc3ccccc3[n+]2CC(=O)O)cc1.[Br-] : reported concentration at 0.25 h = 511

====

# experimentSummary: In vivo pharmacokinetics, oral administration
# Design: species or system rat
# measurementParameters: male, Wistar, rat, plasma, po, 10 mg/kg, oral 10 mg/kg, 1 h, single rat
parameter: concentration at 1 h (nM)
Numbers only, in nM.

What the record says about CCCCN(CCCC)c1ccc(C=Cc2sc3ccccc3[n+]2CC(=O)O)cc1.[Br-] [NK-5962] : concentration at 1 h is 2.11

====

# experimentSummary: In vivo pharmacokinetics, intravenous administration
# Set-up: species or system rat
# measurementParameters: male, Sprague Dawley, rat, eye ball, iv, 1 mg/kg, intravenous 1 mg/kg, 0.5 h (30 min); read-out: Mean Eye Ball Concentration
parameter: concentration at 0.5 h (nM)
One number for each entry, in nM.

concentration at 0.5 h measured on CCCCN(CCCC)c1ccc(C=Cc2sc3ccccc3[n+]2CC(=O)O)cc1.[Br-] = 29.8

====

# experimentSummary: In vivo pharmacokinetics, oral administration
# Parameters: species or system rat
# measurementParameters: male, Wistar, rat, eye ball, po, 100 mg/kg, oral 100 mg/kg, 8 h, single rat; read-out: Eye Ball Concentration
parameter: concentration at 8 h (nM)
Give bare numbers, in nM.

For this compound ( CCCCN(CCCC)c1ccc(C=Cc2sc3ccccc3[n+]2CC(=O)O)cc1.[Br-] ), measured concentration at 8 h is 0.33

====

# experimentSummary: In vivo pharmacokinetics, oral administration
# Design: species or system rat
# measurementParameters: male, Wistar, rat, plasma, po, 100 mg/kg, oral 100 mg/kg, 2 h, single rat
parameter: concentration at 2 h
Give me the value, and tack the unit on after it.

Consider CCCCN(CCCC)c1ccc(C=Cc2sc3ccccc3[n+]2CC(=O)O)cc1.[Br-] . Its measured concentration at 2 h is 17.2 nM

====

# experimentSummary: In vivo pharmacokinetics, oral administration
# Design: species or system rat
# measurementParameters: male, Wistar, rat, plasma, oral, 10 mg/kg; read-out: absolute bioavailability
# Experimental: Male Sprague Dawley (SD) and Wistar rats (5-week old) were obtained from Charles River Laboratories Japan (Yokohama, Japan) and Japan SLC, Inc. (Hamamatsu, Japan), respectively. […] Plasma was prepared by centrifugation of the blood samples. […] The supernatants were analyzed by liquid chromatography and tandem mass spectrometry (LC-MS/MS). […] The absolute bioavailability (BA) of the oral dose was calculated as AUC∞ (p.o.)/AUC∞ (i.v.). […]
parameter: bioavailability

bioavailability for CCCCN(CCCC)c1ccc(C=Cc2sc3ccccc3[n+]2CC(=O)O)cc1.[Br-] is < 1%

====

# experimentSummary: In vivo pharmacokinetics, oral administration
# Design: species or system rat
# measurementParameters: male, Wistar, rat, plasma, po, 100 mg/kg, oral 100 mg/kg, 8 h, single rat; * value deemed erroneous by contamination; read-out: Plasma Concentration
parameter: concentration at 8 h (nM)
One number for each entry, in nM.

The molecule listed as CCCCN(CCCC)c1ccc(C=Cc2sc3ccccc3[n+]2CC(=O)O)cc1.[Br-] [NK-5962] shows concentration at 8 h equal to 4.57

====

# experimentSummary: Hepatic microsomal stability assay, rat
# Type: in vitro ADME
# measurementParameters: rat, liver microsomes, pH 7.4; 1 μM, 0.2 mg/mL microsomes, 1 mM NADPH, 30 min; read-out: Microsome Metabolic Stability Rat (CLint)
# Description: The disappearance of the parent compound over time was measured by using the amount of drug at time zero as a reference. […] After the centrifugation for 15 min at 3150× g at 4 °C, the supernatants were analyzed by LC-MS/MS. Hepatic microsomal stability (mL/min/kg, CLint) was calculated according to the previous report and 44.8 or 48.8 mg microsomal protein/g liver and 40.0 or 25.7 g liver/kg body weight were used as scaling factors for the rat or human, respectively.
parameter: CLint scaled at 1 μM

compound CCCCN(CCCC)c1ccc(C=Cc2sc3ccccc3[n+]2CC(=O)O)cc1.[Br-] , CLint scaled at 1 μM observed: 272 mL/min/kg
